All values here come from patent US20210169980A1.

target: LC3A (human, UniProt Q9H492 1-121); experiment: ITC
property_measured: Kd (µM)
Answers are plain numbers, in µM.

Give measured Kd for every item shown.
1. PEDDWTRFSSEEIREARQAAASHAPS (also called AnkG ER; Glu1991Arg AnkG LIR) [AnkG E1991R (modified from rat 480 kD AnkG residues 1985-2010)]
2. PEDDWTEFSSEEIREARQAAASHAPS [AnkG LIR (AnkG WT peptide, rat 480 kD AnkG residues 1985-2010)]
3. PEDDWTEFSSEEIREQRQAAASHAPS (also called AnkG A2000Q) [A2000Q]

Response:
1: 7.19; 2: 0.546; 3: 8.2

Request: Entry PEDDWTEFSSEEIREA [AnkG LIR construct "1985-2000" (aa 2001-2010 truncated)] : reported Kd = ?
Response: 7.41
